Data provenance: paper PMC10041525

# MIC per record follows
tested on: 100 A. baumannii strains (50 MDR, 50 non-MDR); test: MIC broth microdilution at IHMA Europe, panel of 100 strains; assay type: cell-based; conditions: Acinetobacter baumannii, A. baumannii IHMA 2261047, Belgium 2020, MDR; read-out: MIC
readout label: MIC (mg/L)

>>> result("Cc1[nH]c(C(=O)Nc2nc3c(N4[C@@H]5CC[C@H]4COC5)cc(C(=O)O)cc3s2)c(Cl)c1Cl")
4
>>> result("COc1c(N2C[C@@H]3CCCN[C@@H]3C2)c(F)cc2c(=O)c(C(=O)O)cn(C3CC3)c12")
8
>>> result("CN(C)c1cc(NC(=O)CNC(C)(C)C)c(O)c2c1C[C@H]1C[C@H]3[C@H](N(C)C)C(O)=C(C(N)=O)C(=O)[C@@]3(O)C(O)=C1C2=O")
1
